# Experiment summary: Test for proteolytic degradation of the peptide compounds in ovine serum
# Assay type: in vitro ADME, ewes of the Ile de France breed
# Experimental setup: female, Ile de France, sheep, serum
Where a SMILES comes first, the peptide text is derived from it.
Observable: remaining at 3 h, 50 μM (%)
Give the quantity in %, number only.

Solved cases (2 shown):
compound="CNC(=N)NCCC[C@H](NC(=O)[C@H](CC(C)C)n1cc(CNC(=O)[C@H](Cc2ccccc2)NC(=O)[C@@H](NC(=O)[C@H](CC(N)=O)NC(=O)[C@@H]2C[C@@H](O)CN2C(=O)[C@@H](Cc2ccc(O)cc2)NC(C)=O)[C@@H](C)O)nn1)C(=O)N[C@@H](Cc1c[nH]c2ccccc12)C(N)=O [Compound C7] (HELM PEPTIDE1{[ac].[dY].[Hyp].N.T.F.[CC(C)C[C@@H](C(=O)[*:2])n1cc(CN[*:1])nn1].[CNC(=N)NCCC[C@H](N[*:1])C(=O)[*:2]].W.[am]}$$$$V2.0)" numeric_readout=17
compound=CC(=O)N[C@@H](Cc1ccc(O)cc1)C(=O)N[C@@H](CC(N)=O)C(=O)N[C@@H](Cc1c[nH]c2ccccc12)C(=O)N[C@@H](CC(N)=O)C(=O)N[C@@H](CO)C(=O)N[C@@H](Cc1ccccc1)c1cn(Cc2cn([C@@H](CC(C)C)C(=O)N[C@@H](CCCNC(=N)N)C(=O)N[C@@H](Cc3ccc(O)cc3)C(N)=O)nn2)nn1 numeric_readout=51

Bench note: what remaining at 3 h, 50 μM did CNC(=N)NCCC[C@H](NC(=O)[C@H](CC(C)C)n1cc(CNC(=O)[C@H](Cc2ccccc2)NC(=O)[C@@H](NC(=O)[C@H](CC(N)=O)NC(=O)[C@@H](Cc2c[nH]c3ccccc23)NC(=O)[C@@H](Cc2ccc(O)cc2)NC(C)=O)[C@@H](C)O)nn1)C(=O)N[C@@H](Cc1c[nH]c2ccccc12)C(N)=O [Compound C6] (HELM PEPTIDE1{[ac].[dY].[dW].N.T.F.[CC(C)C[C@@H](C(=O)[*:2])n1cc(CN[*:1])nn1].[CNC(=N)NCCC[C@H](N[*:1])C(=O)[*:2]].W.[am]}$$$$V2.0) show?
50

Request: CNC(=N)NCCC[C@H](NC(=O)[C@H](CC(C)C)n1cc(CNC(=O)[C@H](Cc2ccccc2)NC(=O)[C@H](CO)NC(=O)[C@H](CC(N)=O)NC(=O)[C@H](CCCCNC(C)=O)NC(=O)[C@H](CC(N)=O)NC(=O)[C@H](Cc2ccc(O)cc2)NC(C)=O)nn1)C(=O)N[C@@H](Cc1ccc(O)cc1)C(N)=O [Compound C4] (HELM PEPTIDE1{[ac].Y.N.K.N.S.F.[CC(C)C[C@@H](C(=O)[*:2])n1cc(CN[*:1])nn1].[CNC(=N)NCCC[C@H](N[*:1])C(=O)[*:2]].Y.[am]}|PEPTIDE2{[ac]}$PEPTIDE1,PEPTIDE2,4:R3-1:R2$$$V2.0)
59

What do you have for CC(=O)N[C@@H](Cc1ccc(O)cc1)C(=O)N[C@@H](CC(N)=O)C(=O)N[C@@H](Cc1c[nH]c2ccccc12)C(=O)N[C@@H](CC(N)=O)C(=O)N[C@@H](CO)C(=O)N[C@@H](Cc1ccccc1)C(=O)NCc1cn([C@@H](CC(C)C)C(=O)N[C@@H](CCCNC(=N)N)C(=O)N[C@@H](Cc2ccc(O)cc2)C(N)=O)nn1 [Compound C2] (HELM PEPTIDE1{[ac].Y.N.W.N.S.F.[CC(C)C[C@@H](C(=O)[*:2])n1cc(CN[*:1])nn1].R.Y.[am]}$$$$V2.0) ?
46

What about CNC(=N)NCCC[C@H](NC(=O)[C@H](CC(C)C)n1cc(CNC(=O)[C@H](Cc2ccccc2)NC(=O)[C@H](CO)NC(=O)[C@H](CC(N)=O)NC(=O)[C@H](Cc2c[nH]c3ccccc23)NC(=O)[C@H](CC(N)=O)NC(=O)[C@H](Cc2ccc(O)cc2)NC(C)=O)nn1)C(=O)N[C@@H](Cc1ccc(O)cc1)C(N)=O [Compound C3] (HELM PEPTIDE1{[ac].Y.N.W.N.S.F.[CC(C)C[C@@H](C(=O)[*:2])n1cc(CN[*:1])nn1].[CNC(=N)NCCC[C@H](N[*:1])C(=O)[*:2]].Y.[am]}$$$$V2.0) ?
55
